# MEASURED_ON: Fyn (UniProt P06241)
# Sequence (P06241 whole entry, looked up): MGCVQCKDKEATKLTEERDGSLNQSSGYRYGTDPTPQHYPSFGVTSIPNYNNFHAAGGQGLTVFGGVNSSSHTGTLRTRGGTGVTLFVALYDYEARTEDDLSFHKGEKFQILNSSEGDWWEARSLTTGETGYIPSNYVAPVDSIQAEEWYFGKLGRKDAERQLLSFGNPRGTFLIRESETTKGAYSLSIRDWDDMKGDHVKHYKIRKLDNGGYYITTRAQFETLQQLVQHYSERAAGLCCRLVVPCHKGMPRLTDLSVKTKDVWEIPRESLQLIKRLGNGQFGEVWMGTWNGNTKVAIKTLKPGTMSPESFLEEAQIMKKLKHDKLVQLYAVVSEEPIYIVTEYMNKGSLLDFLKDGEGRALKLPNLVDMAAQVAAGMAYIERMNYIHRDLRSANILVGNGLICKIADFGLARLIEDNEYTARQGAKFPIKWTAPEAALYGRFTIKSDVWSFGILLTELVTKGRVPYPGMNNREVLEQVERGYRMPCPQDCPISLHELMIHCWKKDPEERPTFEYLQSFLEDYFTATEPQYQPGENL
# METHOD_DESCRIPTION: phosphorylation enrichment, bacterial display (enrichment ratio); higher = better substrate or ligand; peptides without Tyr show the background;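 note: 11-residue human phosphosite peptides and single-mutation variants displayed on the E. coli surface, counted by deep sequencing, each peptide's frequency after selection divided by its frequency in the unselected input library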;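 note: frequency after pTyr selection over input frequency; kinase dosed for 20-30% of maximal phosphorylation in three min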
Please provide measured phosphorylation enrichment for the entries that follow.
Give your answer as a number; write no unit.

Q: Value wanted: phosphorylation enrichment (Fyn (UniProt P06241)) of entry MSRDVYSTDCF [NTRK2_Y702_Y706C_YF]
Result: 2.71

Q: Value wanted: phosphorylation enrichment (Fyn (UniProt P06241)) of entry DEEPPYRGPFC [SASH1_Y551]
Result: 0.437

Q: Value wanted: phosphorylation enrichment (Fyn (UniProt P06241)) of entry TDLAFYLVCKG [ASL_Y376_R379C_YF]
Result: 0.411

Q: Value wanted: phosphorylation enrichment (Fyn (UniProt P06241)) of entry IVAEYYDNLPH [DEGS1_Y284_A280V]
Result: 0.682

Q: Value wanted: phosphorylation enrichment (Fyn (UniProt P06241)) of entry GREYIYVDPMQ [PDGFRA_Y574_H570R]
Result: 1.73

Q: Value wanted: phosphorylation enrichment (Fyn (UniProt P06241)) of entry AFLEDYFTSTK [SRC_Y522_E527K]
Result: 0.474

Q: Value wanted: phosphorylation enrichment (Fyn (UniProt P06241)) of entry QNAGDYFDLFG [PTPN11_Y62_T59A_YF]
Result: 0.516

Q: Value wanted: phosphorylation enrichment (Fyn (UniProt P06241)) of entry EEGRVYVYRLS [ITGAE_Y549]
Result: 0.616

Q: Value wanted: phosphorylation enrichment (Fyn (UniProt P06241)) of entry LLRFLYFFVCS [SLC34A2_Y109_G106R]
Result: 0.519

Q: Value wanted: phosphorylation enrichment (Fyn (UniProt P06241)) of entry SLEKSYKLPDG [ACTA1_Y242_E243K]
Result: 0.397

Q: Value wanted: phosphorylation enrichment (Fyn (UniProt P06241)) of entry "ANVKWYRSGRE"
Result: 0.43

Q: Value wanted: phosphorylation enrichment (Fyn (UniProt P06241)) of entry PVQAAYQKVEA [HBB_Y131_V135E]
Result: 0.597

Q: Value wanted: phosphorylation enrichment (Fyn (UniProt P06241)) of entry AVSHRYDLGGL [QPRT_Y162_A158V]
Result: 0.337

Q: Value wanted: phosphorylation enrichment (Fyn (UniProt P06241)) of entry MKGDYYRSLAE [YWHAG_Y131_Y133S]
Result: 0.466

Q: Value wanted: phosphorylation enrichment (Fyn (UniProt P06241)) of entry GGMTEYELVVV [KRAS_Y4_K5E]
Result: 0.664

Q: Value wanted: phosphorylation enrichment (Fyn (UniProt P06241)) of entry HPFNSYTFPRL [PAK5_Y316_S312P_YF]
Result: 1.19

Q: Value wanted: phosphorylation enrichment (Fyn (UniProt P06241)) of entry VQEDIYDEFVE [ALDH2_Y332]
Result: 1.89

Q: Value wanted: phosphorylation enrichment (Fyn (UniProt P06241)) of entry SVVVPYEPPGV [TP53_Y220_E224G]
Result: 0.544

Q: Value wanted: phosphorylation enrichment (Fyn (UniProt P06241)) of entry RASQEYHIVKK [PDZD2_Y557_S552R]
Result: 0.289

Q: Value wanted: phosphorylation enrichment (Fyn (UniProt P06241)) of entry MFNPMYALFRT [HUWE1_Y4078]
Result: 4.28

Q: Value wanted: phosphorylation enrichment (Fyn (UniProt P06241)) of entry QRNEEYCLLDS [ITK_Y198_R193Q]
Result: 0.735

Q: Value wanted: phosphorylation enrichment (Fyn (UniProt P06241)) of entry "PGVNFYFQVSA"
Result: 0.414

Q: Value wanted: phosphorylation enrichment (Fyn (UniProt P06241)) of entry LEIETYRRLRD [KRT12_Y429_L433R]
Result: 0.658

Q: Value wanted: phosphorylation enrichment (Fyn (UniProt P06241)) of entry TIMTNYNPNYC [ALK_Y1092_D1091N]
Result: 0.565

Q: Value wanted: phosphorylation enrichment (Fyn (UniProt P06241)) of entry MGSFNYLGFPR [SPTLC2_Y178_A182P_YF]
Result: 0.44

Q: Value wanted: phosphorylation enrichment (Fyn (UniProt P06241)) of entry YQCKHYACIRQ [TIMP3_Y182_S179C]
Result: 0.347

Q: Value wanted: phosphorylation enrichment (Fyn (UniProt P06241)) of entry VFPIDYYFPPQ [AR_Y552_L548F]
Result: 0.816

Q: Value wanted: phosphorylation enrichment (Fyn (UniProt P06241)) of entry IPGRYYETGSI [PAX2_Y73_L69P]
Result: 0.454

Q: Value wanted: phosphorylation enrichment (Fyn (UniProt P06241)) of entry EACRSYSHVVL [CHST6_Y168]
Result: 0.611

Q: Value wanted: phosphorylation enrichment (Fyn (UniProt P06241)) of entry SSDKVYAHQMV [MLH1_Y379]
Result: 0.538

Q: Value wanted: phosphorylation enrichment (Fyn (UniProt P06241)) of entry RGDIFYTSKLW [AKR1C3_Y81_E77G]
Result: 0.611

Q: Value wanted: phosphorylation enrichment (Fyn (UniProt P06241)) of entry VRSVDYVLFRS [FAM189B_Y361]
Result: 0.455

Q: Value wanted: phosphorylation enrichment (Fyn (UniProt P06241)) of entry SFHSSYSEIKD [DCLRE1C_Y322]
Result: 0.512

Q: Value wanted: phosphorylation enrichment (Fyn (UniProt P06241)) of entry SDFSSYARTSI [TERT_Y949_YF]
Result: 0.488

Q: Value wanted: phosphorylation enrichment (Fyn (UniProt P06241)) of entry PRRRFYVVACD [RNASE3_Y134_G130R]
Result: 0.759

Q: Value wanted: phosphorylation enrichment (Fyn (UniProt P06241)) of entry FETSHYLASPD [CTNND2_Y1217_P1218L_YF]
Result: 0.557

Q: Value wanted: phosphorylation enrichment (Fyn (UniProt P06241)) of entry SEDANYKRVSC [TTC3_Y1288]
Result: 0.612

Q: Value wanted: phosphorylation enrichment (Fyn (UniProt P06241)) of entry ILLAGCLVMVI [SLC28A3_Y113_Y113C]
Result: 0.471

Q: Value wanted: phosphorylation enrichment (Fyn (UniProt P06241)) of entry GRERPYGGGGG [FUS_Y526_R521G]
Result: 0.357

Q: Value wanted: phosphorylation enrichment (Fyn (UniProt P06241)) of entry LIHLHYIRRDY [BBS4_Y43_K46R]
Result: 0.389

Q: Value wanted: phosphorylation enrichment (Fyn (UniProt P06241)) of entry TSFSGYRCHRH [NKAPL_Y94_Y96C_YF]
Result: 0.419

Q: Value wanted: phosphorylation enrichment (Fyn (UniProt P06241)) of entry FIGVTYKNEED [PDGFRA_Y993_YF]
Result: 0.432

Q: Value wanted: phosphorylation enrichment (Fyn (UniProt P06241)) of entry NFATLHLKIFH [PDE6B_Y219_Y219H_YF]
Result: 0.519

Q: Value wanted: phosphorylation enrichment (Fyn (UniProt P06241)) of entry TTIVSYRASQP [MKI67_Y1737_K1734I]
Result: 0.481

Q: Value wanted: phosphorylation enrichment (Fyn (UniProt P06241)) of entry RETLTYAQAQR [BRD1_Y33]
Result: 0.584

Q: Value wanted: phosphorylation enrichment (Fyn (UniProt P06241)) of entry RMETAYGPSVT [MXRA5_Y2717_E2716A]
Result: 0.467

Q: Value wanted: phosphorylation enrichment (Fyn (UniProt P06241)) of entry KRLDGYVLEGR [IGSF9_Y656]
Result: 0.441

Q: Value wanted: phosphorylation enrichment (Fyn (UniProt P06241)) of entry RAIELYNDKEK [OTULIN_Y244]
Result: 0.558

Q: Value wanted: phosphorylation enrichment (Fyn (UniProt P06241)) of entry AFLGEYIPTVF [RAC2_Y32_P29L]
Result: 0.593

Q: Value wanted: phosphorylation enrichment (Fyn (UniProt P06241)) of entry RALRHYYKLNI [ETV6_Y401]
Result: 0.685

Q: Value wanted: phosphorylation enrichment (Fyn (UniProt P06241)) of entry STQAHYRLSAF [ADAMTS9_Y100_S96T]
Result: 0.461

Q: Value wanted: phosphorylation enrichment (Fyn (UniProt P06241)) of entry IYRASYVPFAA [RBM47_Y541_G538R]
Result: 0.593

Q: Value wanted: phosphorylation enrichment (Fyn (UniProt P06241)) of entry QDEPTYARSSK [PEAK1_Y616_H611Q]
Result: 0.554

Q: Value wanted: phosphorylation enrichment (Fyn (UniProt P06241)) of entry ENRKYYMDLKE [PURA_Y156]
Result: 0.418

Q: Value wanted: phosphorylation enrichment (Fyn (UniProt P06241)) of entry FEGHSYSACTT [MMP9_Y241_R239H]
Result: 0.512

Q: Value wanted: phosphorylation enrichment (Fyn (UniProt P06241)) of entry FDDIACIRKTL [PIK3CA_Y1021_Y1021C]
Result: 0.374

Q: Value wanted: phosphorylation enrichment (Fyn (UniProt P06241)) of entry DLVHPYVHKIL [SF3B1_Y570_R568H]
Result: 0.495

Data credit: the supplement of paper PMC10065799
